molecular target: eIF4E:m7G binding (G4E) (UniProt P06654+P63073); construct: construct a gift of Gerhard Wagner; assay: m7G-Sepharose affinity chromatography competition; details: read-out: apparent inhibition constant (Ki) of eIF4E:m7G binding
Sequence (P06654+P63073 fused): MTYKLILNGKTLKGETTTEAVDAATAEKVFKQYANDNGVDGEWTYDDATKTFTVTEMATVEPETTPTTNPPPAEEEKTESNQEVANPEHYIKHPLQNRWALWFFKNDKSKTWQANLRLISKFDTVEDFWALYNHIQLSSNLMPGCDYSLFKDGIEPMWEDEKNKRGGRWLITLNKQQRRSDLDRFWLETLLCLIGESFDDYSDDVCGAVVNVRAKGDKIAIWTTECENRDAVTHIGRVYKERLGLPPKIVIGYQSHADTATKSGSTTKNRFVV

molecule: NC(=O)c1ncn([C@@H]2O[C@H](CO[P@@](=O)(O)O[P@](=O)(O)OP(=O)(O)O)[C@@H](O)[C@H]2O)n1 [RTP, Ribavirin-5′ triphosphate]
Ki: ~300 nM

###

molecular target: eIF4E:m7G binding (G4E) (UniProt P06654+P63073); construct: construct a gift of Gerhard Wagner; test: m7G-Sepharose affinity chromatography competition; conditions: Western blot of eIF4E remaining bound; read-out: concentration giving 50% reduction of eIF4E binding to m7G-Sepharose
pIC50: −log10 of the molar value.

molecule: NC(=O)c1ncn([C@@H]2O[C@H](CO[P@@](=O)(O)O[P@](=O)(O)OP(=O)(O)O)[C@@H](O)[C@H]2O)n1 [RTP, Ribavirin-5′ triphosphate]
system.name: eIF4E:m7G binding (G4E) (UniProt P06654+P63073)
pIC50: ~6.00

Source of measurements: patent US10472677B2
